System: NCI-H322M multicellular tumor spheroids, viability (% test/control)
Test: Anticancer human tumor NCI-H322M cell line growth inhibition; active = viability on the fitted dose curve at most 10% of control; inactive = the rest;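 also: spheroids exposed to compound for seven days before readout; 100% = DMSO vehicle control wells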
Conditions: second compound 0.003 µM; first compound 0.0316 µM
Description: Multicellular complex tumor spheroid response to DNA repair inhibitors in combination with DNA-damaging drugs This study explores the anticancer activities of DNA-damaging drugs and inhibitors of DNA damage repair, both as single agents and in combinations. […] Twenty-six patient-derived or established malignant cell lines were evaluated representing sarcoma, melanoma, small cell lung cancer (SCLC), non-small cell lung cancer (NSCLC), as well as bladder, ovarian and pancreatic cancers. […]
Just give me one of these, please: class 1 = active, class 0 = inactive

Example entries and their recorded answers appear below.
| molecule | assigned label |
| --- | --- |
| [2H]c1nc(C)nc([2H])c1-c1cc(NC[C@@H](C)c2cccc3c(C(=O)NC)ccnc23)ncn1 + CC[C@@]1(O)C(=O)OCc2c1cc1n(c2=O)Cc2cc3c(CN(C)C)c(O)ccc3nc2-1 | class 0 |
| COc1cc(C)[nH]c(=O)c1CN1CCc2c(Cl)cc(C(OC)C3COC3)c(Cl)c2C1=O (stereo not drawn) + CC[C@@]1(O)C(=O)OCc2c1cc1n(c2=O)Cc2cc3c(CN(C)C)c(O)ccc3nc2-1 | class 0 |

Lab note: next molecule to report on.
Query: recorded result category for CC1COCCN1c1cc(-c2ccnn2C)c2ccnc(-c3ccn[nH]3)c2n1 (stereo not drawn) + COc1cc2c(cc1O)CCNC21CSC2c3c(OC(C)=O)c(C)c4c(c3C(COC1=O)N1C(O)C3Cc5cc(C)c(OC)c(O)c5C(C21)N3C)OCO4 in this test class 1
